# assay-protocol: Equilibrium fluorescence titration with Fe(II)
# Assay type: binding
# measurement-context: 1 µM apoprotein, 25 °C; read-out: Dissociation constant Kd, Fe(II)
# reported Kd; entries follow
Answer format: numeric, µM implied, no suffix.

For orientation, consider the following solved cases.
H191A ALKBH3: ALKBH3 mutant, His191 replaced with Ala (protein, UniProt Q96Q83 1-286, looked up, variant H191A) Alpha-ketoglutarate-dependent …: MEEKRRRARVQGAWAAPVKSQAIAQPATTAKSHLHQKPGQTWKNKEHHLSDREFVFKEPQQVVRRAPEPRVIDREGVYEISLSPTGVSRVCLYPGFVDVKEADWILEQLCQDVPWKQRTGIREDITYQQPRLTAWYGELPYTYSRITMEPNPHWHPVLRTLKNRIEENTGHTFNSLLCNLYRNEKDSVDWASDDEPSLGRCPIIASLSFGATRTFEMRKKPPPEENGDYTYVERVKIPLDHGTLLIMEGATQADWQHRVPKEYHSREPRVNLTFRTVYPDPRGAPW : 20
Y143A ALKBH3: ALKBH3 mutant, Tyr143 replaced with Ala (protein, UniProt Q96Q83 1-286, looked up, variant Y143A) Alpha-ketoglutarate-dependent …: MEEKRRRARVQGAWAAPVKSQAIAQPATTAKSHLHQKPGQTWKNKEHHLSDREFVFKEPQQVVRRAPEPRVIDREGVYEISLSPTGVSRVCLYPGFVDVKEADWILEQLCQDVPWKQRTGIREDITYQQPRLTAWYGELPYTASRITMEPNPHWHPVLRTLKNRIEENTGHTFNSLLCNLYRNEKDSVDWHSDDEPSLGRCPIIASLSFGATRTFEMRKKPPPEENGDYTYVERVKIPLDHGTLLIMEGATQADWQHRVPKEYHSREPRVNLTFRTVYPDPRGAPW : 25
L177A ALKBH3: ALKBH3 mutant, Leu177 replaced with Ala (protein, UniProt Q96Q83 1-286, looked up, variant L177A) Alpha-ketoglutarate-dependent …: MEEKRRRARVQGAWAAPVKSQAIAQPATTAKSHLHQKPGQTWKNKEHHLSDREFVFKEPQQVVRRAPEPRVIDREGVYEISLSPTGVSRVCLYPGFVDVKEADWILEQLCQDVPWKQRTGIREDITYQQPRLTAWYGELPYTYSRITMEPNPHWHPVLRTLKNRIEENTGHTFNSLACNLYRNEKDSVDWHSDDEPSLGRCPIIASLSFGATRTFEMRKKPPPEENGDYTYVERVKIPLDHGTLLIMEGATQADWQHRVPKEYHSREPRVNLTFRTVYPDPRGAPW : 24

Consider the record given below.
Req: Which value of Kd has been reported for Y143F ALKBH3: ALKBH3 mutant, Tyr143 replaced with Phe (protein, UniProt Q96Q83 1-286, looked up, variant Y143F) Alpha-ketoglutarate-dependent …: MEEKRRRARVQGAWAAPVKSQAIAQPATTAKSHLHQKPGQTWKNKEHHLSDREFVFKEPQQVVRRAPEPRVIDREGVYEISLSPTGVSRVCLYPGFVDVKEADWILEQLCQDVPWKQRTGIREDITYQQPRLTAWYGELPYTFSRITMEPNPHWHPVLRTLKNRIEENTGHTFNSLLCNLYRNEKDSVDWHSDDEPSLGRCPIIASLSFGATRTFEMRKKPPPEENGDYTYVERVKIPLDHGTLLIMEGATQADWQHRVPKEYHSREPRVNLTFRTVYPDPRGAPW in the records?
Resp: 23
